Source of measurements: PubChem BioAssay (Tox21)

Assay: qHTS assay to test for compound auto fluorescence at 460 nm (blue) in HepG2 cells (AID 720687); further: on the % scale 0 is the no-effect control and ±100 the full control effect
Details: autofluorescence 405/460 nm, 1 h; series mostly up to 91.3 µM
From the text: U.S. Tox21 Program National Center for Advancing Translational Sciences [NCATS] NIH Chemical Genomics Center [NCGC] U.S. Environmental Protection Agency [EPA] National Institutes of Environmental Health Sciences [NIEHS] National Toxicology Program [NTP] U.S. Food and Drug Administration [FDA] Tox21 Assay Overview: Compound auto fluorescence often interferes with screening of the compound library against various biological targets and signaling pathways. […] This assay includes the blue fluorescence data. […]
Activity calls are given as the source filed them. The call rests on the fitted dose curve; in most records, active means well fitted curve in the direction sought with a large enough effect in the repeat runs; inconclusive means weak or mixed curves; inactive means flat fitted curve, though single readings scatter.

| compound | fluorescence, % of fluorescent control |
| --- | --- |
| OCCCCC(O)CO (configuration not stated) | inactive |
| COc1ccc(C2CNC(=O)C2)cc1OC1CCCC1 (configuration not stated) | -0.0914% [at 18.6 µM] (inactive) |
| COc1ccc(Br)c(C)c1 | inactive |
| C[C@@H](O)[C@H]1C(=O)N2C(C(=O)O)=C(SCCN=CN)C[C@H]12 | 0.982% [at 18.6 µM] (inactive) |
| O=C(CCN1CCN(CCO)CC1)N1c2ccccc2Sc2ccc(C(F)(F)F)cc21 | inactive |
| Nc1cccc(O)c1 | inactive |
| CCCCCCCCCCl | inactive |

====

Target: Luciferin 4-monooxygenase (Photinus pyralis) (UniProt P08659)
Sequence (P08659 whole entry, looked up): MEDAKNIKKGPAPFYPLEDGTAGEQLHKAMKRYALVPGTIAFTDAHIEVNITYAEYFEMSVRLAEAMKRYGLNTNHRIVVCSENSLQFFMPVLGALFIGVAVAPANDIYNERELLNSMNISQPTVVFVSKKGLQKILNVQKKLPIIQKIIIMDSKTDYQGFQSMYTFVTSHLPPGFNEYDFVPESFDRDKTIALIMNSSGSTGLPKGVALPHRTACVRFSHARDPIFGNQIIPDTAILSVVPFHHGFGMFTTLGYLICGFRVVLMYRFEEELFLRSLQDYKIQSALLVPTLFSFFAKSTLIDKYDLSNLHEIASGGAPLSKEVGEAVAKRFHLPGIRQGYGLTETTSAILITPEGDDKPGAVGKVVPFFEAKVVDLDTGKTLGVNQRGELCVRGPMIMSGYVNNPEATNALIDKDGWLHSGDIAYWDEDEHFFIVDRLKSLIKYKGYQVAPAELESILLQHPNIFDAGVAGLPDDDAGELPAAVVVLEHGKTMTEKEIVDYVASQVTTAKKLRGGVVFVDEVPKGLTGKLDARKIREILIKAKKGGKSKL
Assay: qHTS assay to identify small molecule inhibitors of firefly luciferase (AID 1224835); further: nearly all actives have a fitted effect of over 25% in size
Conditions: purified P. pyralis luciferase, luminescence inhibition; series mostly up to 115 µM
Results filed as inconclusive are left out. Calls of active or inactive are those of the source. Calls follow the shape of the dose curve; as a rule, active = well fitted inhibition curve with a large enough effect in the repeat runs; inconclusive = weak or mixed curves; inactive = flat fitted curve, though single readings scatter.
Possible outcomes: active, inactive

| compound | tgt | cat |
| --- | --- | --- |
| COc1nccnc1NS(=O)(=O)c1ccc(N)cc1 | Luciferin 4-monooxygenase (Photinus pyralis) (UniProt P08659) | inactive |
| CC(=O)NCCCCCC(=O)O | Luciferin 4-monooxygenase (Photinus pyralis) (UniProt P08659) | inactive |
| Cc1ccc2c(c1)OCC(=O)CO2 | Luciferin 4-monooxygenase (Photinus pyralis) (UniProt P08659) | inactive |
| CC(=O)NCc1c(I)c(NC(C)=O)c(I)c(C(=O)O)c1I | Luciferin 4-monooxygenase (Photinus pyralis) (UniProt P08659) | inactive |
| Cc1cccc2nccnc12 | Luciferin 4-monooxygenase (Photinus pyralis) (UniProt P08659) | inactive |
| On1nnc2ccccc21 | Luciferin 4-monooxygenase (Photinus pyralis) (UniProt P08659) | inactive |
| CCCCCCCCCCCCCC | Luciferin 4-monooxygenase (Photinus pyralis) (UniProt P08659) | inactive |
| CC(C)N(c1ccccc1)C(C)C | Luciferin 4-monooxygenase (Photinus pyralis) (UniProt P08659) | inactive |
| Brc1ccc(-c2ccccc2)cc1 | Luciferin 4-monooxygenase (Photinus pyralis) (UniProt P08659) | active |
| NS(=O)(=O)c1cc2c(cc1Cl)CN(C1CCCCC1)C2=O | Luciferin 4-monooxygenase (Photinus pyralis) (UniProt P08659) | inactive |
| Cc1cc(C(C)(C)C)c(O)c(C)c1CC1=NCCN1 | Luciferin 4-monooxygenase (Photinus pyralis) (UniProt P08659) | inactive |
| CCOC(=O)/C=C/c1ccccc1 | Luciferin 4-monooxygenase (Photinus pyralis) (UniProt P08659) | active |
| O=C(CCN1CCN(CCO)CC1)N1c2ccccc2Sc2ccc(C(F)(F)F)cc21 | Luciferin 4-monooxygenase (Photinus pyralis) (UniProt P08659) | inactive |
| O=C(O)Cc1cn(-c2ccccc2)nc1-c1ccc(Cl)cc1 | Luciferin 4-monooxygenase (Photinus pyralis) (UniProt P08659) | inactive |
| OCCCCC(O)CO (stereo not given) | Luciferin 4-monooxygenase (Photinus pyralis) (UniProt P08659) | inactive |
| CCOc1cc([N+](=O)[O-])c(OCC)cc1N1CCOCC1 | Luciferin 4-monooxygenase (Photinus pyralis) (UniProt P08659) | inactive |
| CN1C(C)(C)CCCC1(C)C | Luciferin 4-monooxygenase (Photinus pyralis) (UniProt P08659) | inactive |
| COc1ccc2nc(SCc3ncc(C)c(OC)c3C)[nH]c2c1 | Luciferin 4-monooxygenase (Photinus pyralis) (UniProt P08659) | active |
| C=C(C)C(=O)OCc1ccccc1 | Luciferin 4-monooxygenase (Photinus pyralis) (UniProt P08659) | inactive |
| CO[C@@H]1[C@@H](OC(N)=O)[C@@H](O)[C@H](Oc2ccc3c(O)c(NC(=O)c4ccc(O)c(CC=C(C)C)c4)c(=O)oc3c2C)OC1(C)C | Luciferin 4-monooxygenase (Photinus pyralis) (UniProt P08659) | inactive |

====

Assay: qHTS assay to identify small molecule antagonists of the progesterone receptor (PR) signaling pathway - cell viability counter screen (AID 1346798);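 further: HEK293T PR-UAS-bla cells stimulated with the agonist R5020; on the % scale 0 is the no-effect control and ±100 the full control effect; nearly all actives have a fitted effect of over 50% in size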
Conditions: PR-UAS-bla HEK293T viability, CellTiter-Glo luminescence, 16 h; series mostly up to 92.4 µM
Results filed as inconclusive are left out. The source made the active and inactive calls. The call rests on the fitted dose curve; in most records, active means well fitted cell-killing curve with a large enough effect in the repeat runs; inconclusive means weak or mixed curves, or effect the other way; inactive means no such curve, though single readings can be large or run the other way.

| compound | activity change, negative = cytotoxicity |
| --- | --- |
| COC(=O)CCCCCCCC(=O)OC | inactive |
| O=C1c2ccccc2C(=O)c2cc(S(=O)(=O)O)ccc21 | inactive |
| CCOc1cc([N+](=O)[O-])c(OCC)cc1N1CCOCC1 | inactive |
| CO[C@@H]1[C@@H](OC(N)=O)[C@@H](O)[C@H](Oc2ccc3c(O)c(NC(=O)c4ccc(O)c(CC=C(C)C)c4)c(=O)oc3c2C)OC1(C)C | inactive |
| COCCOC(=O)C1=C(C)NC(C)=C(C(=O)OC(C)C)C1c1cccc([N+](=O)[O-])c1 (stereo unspecified) | inactive |
| CC(C)OC(=O)CCCCC(=O)OC(C)C | inactive |

====

Test: qHTS assay for identifying genotoxic compounds that show differential cytotoxicity against isogenic chicken DT40 cell lines with known DNA damage response pathways - Rad54/Ku70 mutant cell line (AID 743015); further: nearly all actives have a fitted effect of over 60% in size
Settings: DT40 Rad54/Ku70 mutant viability, CellTiter-Glo, 40 h; series mostly up to 66.8 µM
Records with an inconclusive call do not appear. Activity calls are given as the source filed them. The call rests on the fitted dose curve; in most records, active means well fitted cell-killing curve with a large enough effect in the repeat runs; inconclusive means weak or mixed curves; inactive means no such curve, though single readings can be large or run the other way.
Outcome codes: active, inactive

| molecule | cat |
| --- | --- |
| NNc1nnc(NN)c2ccccc12 | inactive |
| COC(=O)CCCCCCCC(=O)OC | inactive |
| O=S(=O)(O)CCN1CCN(CCO)CC1 | inactive |
| C=CC(OCC)OCC | inactive |
| COCCOCCOCCOCCOCCO | inactive |
| O=C(OCC(COC(=O)c1cccnc1)(COC(=O)c1cccnc1)COC(=O)c1cccnc1)c1cccnc1 | inactive |
| O=C(CCN1CCN(CCO)CC1)N1c2ccccc2Sc2ccc(C(F)(F)F)cc21 | active |
| Cc1nc2n(c(=O)c1CCN1CCC(c3noc4cc(F)ccc34)CC1)CCC[C@H]2O | inactive |
| CN(CCOc1ccc(NS(C)(=O)=O)cc1)CCc1ccc(NS(C)(=O)=O)cc1 | active |
| CC1(CO)CN(c2ccccc2)NC1=O (stereo not given) | inactive |
| CCCCCCCCOS(=O)(=O)O | inactive |
| COc1ccc(C2CNC(=O)C2)cc1OC1CCCC1 (stereo not given) | inactive |
| COc1ccc(OC)c(Cl)c1 | inactive |
| CCCCCCCCCCCCCC | inactive |
| Cc1cc2cc3c(C)cc(=O)oc3c(C)c2o1 | inactive |

====

Assay: qHTS assay for small molecule agonists of the antioxidant response element (ARE) signaling pathway (AID 743202); further: potency means the concentration at half of the fitted maximal effect; on activation: on the % scale 0 is the no-effect control and ±100 the full control effect
Conditions: HepG2 ARE-bla reporter, beta-lactamase FRET, 16 h; series mostly up to 73.3 µM
Results filed as inconclusive are left out. Activity calls are given as the source filed them. The call rests on the fitted dose curve; in most records, active means well fitted activation curve with a large enough effect in the signal ratio in the repeat runs (not every such curve was filed as active); inconclusive means weak or mixed curves, or effect the other way; inactive means no such curve, though single readings can be large or run the other way; the % refers to the signal ratio.
assay.endpoint: Potency

| compound | result |
| --- | --- |
| O=C1O[C@@H]2[C@@H](O)[C@H](O)O[C@@H]2[C@H]1O | inactive |
| C=C(C)C(=O)OCCN(CC)CC | inactive |
| CCC(C)(CCC(C)C)C(=O)O (stereo unspecified) | inactive |
| CCOc1cc([N+](=O)[O-])c(OCC)cc1N1CCOCC1 | inactive |
| COc1ccc2c(c1OC)C(=O)O[C@@H]2[C@H]1c2c(cc3c(c2OC)OCO3)CCN1C | inactive |
| CC(=O)c1ccc2c(c1)Cc1ccccc1-2 | 7.7 µM (active) |

====

Target: Nuclear receptor subfamily 1 group I member 3 (Homo sapiens) (UniProt Q14994)
Sequence (Q14994 whole entry, looked up): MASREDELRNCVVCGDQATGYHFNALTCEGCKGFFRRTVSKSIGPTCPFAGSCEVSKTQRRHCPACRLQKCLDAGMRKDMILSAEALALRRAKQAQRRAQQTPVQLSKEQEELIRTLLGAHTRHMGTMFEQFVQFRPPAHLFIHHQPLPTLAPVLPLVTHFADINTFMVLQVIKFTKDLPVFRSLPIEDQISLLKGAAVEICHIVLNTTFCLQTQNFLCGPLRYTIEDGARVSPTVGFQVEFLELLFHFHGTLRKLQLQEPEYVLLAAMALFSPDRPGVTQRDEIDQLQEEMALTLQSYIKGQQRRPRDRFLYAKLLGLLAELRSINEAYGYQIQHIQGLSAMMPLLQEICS
Assay: qHTS assay to identify small molecule antagonists of the constitutive androstane receptor (CAR) signaling pathway (AID 1224838);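 further: HepG2 cells stably expressing hCAR with CYP2B6 luciferase reporter stimulated by CITCO; on the % scale 0 is the no-effect control and ±100 the full control effect; nearly all actives have a fitted effect of over 40% in size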
Conditions: HepG2-CYP2B6-hCAR luciferase, CITCO-stimulated, 24 h; series mostly up to 92.4 µM
Inconclusive results are not listed. The source made the active and inactive calls. The call rests on the fitted dose curve; in most records, active means well fitted inhibition curve with a large enough effect in the repeat runs; inconclusive means weak or mixed curves, or effect the other way; inactive means no such curve, though single readings can be large or run the other way.

| molecule | activity, negative = inhibition |
| --- | --- |
| CC(CN)CC(C)(C)CCN (stereo unspecified) | inactive |
| CCn1ccc(NS(=O)(=O)c2ccc(N)cc2)nc1=O | inactive |
| C=CCCCCCCCCCCCC | inactive |
| CCCC/C=C/C=C\C=O | inactive |
| CC(C)CCCC(C)(C)O | inactive |
| CN1CCN(CC(=O)N2c3ccccc3C(=O)Nc3cccnc32)CC1 | -1.39% [at 8.39 µM] (inactive) |
